testedTarget: NPR-B (Mus musculus)
Construct: Murine NIH3T3 cells express endogenously the CNP signaling receptor, NPR-B; endogenous in cells; host or cells: NIH3T3
Sequence (Q6VVW5 17-1047): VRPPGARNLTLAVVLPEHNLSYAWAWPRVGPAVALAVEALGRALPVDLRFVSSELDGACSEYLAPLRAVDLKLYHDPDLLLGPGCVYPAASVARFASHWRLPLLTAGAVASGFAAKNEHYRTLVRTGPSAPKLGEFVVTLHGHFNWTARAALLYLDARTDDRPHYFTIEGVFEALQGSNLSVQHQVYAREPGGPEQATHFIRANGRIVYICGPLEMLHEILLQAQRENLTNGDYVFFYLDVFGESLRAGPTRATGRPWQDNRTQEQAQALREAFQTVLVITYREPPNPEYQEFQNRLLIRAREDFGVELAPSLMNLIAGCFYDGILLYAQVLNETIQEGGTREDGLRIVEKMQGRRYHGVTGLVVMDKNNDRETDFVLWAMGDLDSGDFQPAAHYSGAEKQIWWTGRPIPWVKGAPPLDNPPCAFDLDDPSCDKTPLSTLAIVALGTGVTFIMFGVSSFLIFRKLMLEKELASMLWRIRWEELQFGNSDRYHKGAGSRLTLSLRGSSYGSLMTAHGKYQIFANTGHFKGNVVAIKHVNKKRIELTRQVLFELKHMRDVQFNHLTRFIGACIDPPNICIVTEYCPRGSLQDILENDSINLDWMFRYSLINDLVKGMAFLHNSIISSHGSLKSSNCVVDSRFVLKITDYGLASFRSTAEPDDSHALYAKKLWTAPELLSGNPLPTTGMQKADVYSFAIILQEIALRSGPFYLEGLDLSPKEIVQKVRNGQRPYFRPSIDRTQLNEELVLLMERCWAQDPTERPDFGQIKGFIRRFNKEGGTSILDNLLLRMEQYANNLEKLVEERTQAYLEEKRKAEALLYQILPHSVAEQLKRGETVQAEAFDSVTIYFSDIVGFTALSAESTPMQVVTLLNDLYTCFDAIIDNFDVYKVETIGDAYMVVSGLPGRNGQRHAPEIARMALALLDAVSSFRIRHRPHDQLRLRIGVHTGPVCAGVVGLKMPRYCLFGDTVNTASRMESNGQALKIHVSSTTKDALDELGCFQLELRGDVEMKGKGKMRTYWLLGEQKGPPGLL
method: stimulation of cGMP production in NIH3T3 cells
Type: cell-based, murine
particulars: NIH3T3 cells exposed to 1 uM peptide; normalized to cell number and cGMP production in the presence of 1 uM wtCNP22
# reported cGMP Response rel. to 1 uM CNP22, 1 uM; entries follow

Check out these entries, answers already filled in.
input: Find cGMP Response rel. to 1 uM CNP22, 1 uM (NPR-B (Mus musculus)) for the entry CC[C@@H](C)[C@H]1NC(=O)[C@@H](CCCNC(=N)N)NC(=O)[C@@H](CC(=O)O)NC(=O)[C@@H](CC(C)C)NC(=O)[C@@H](CCCCN)NC(=O)[C@@H](CC(C)C)NC(=O)CNC(=O)[C@@H](Cc2ccccc2)NC(=O)[C@H](NC(=O)CNC(=O)[C@@H](CCCCN)NC(=O)[C@@H](CO)NC(=O)[C@@H](CC(C)C)NC(=O)CN)CSSC[C@H](C(=O)O)NC(=O)CNC(=O)[C@@H](CC(C)C)NC(=O)CNC(=O)[C@@H](CO)NC(=O)[C@@H](CCSC)NC(=O)[C@@H](CO)NC(=O)CNC1=O [Analog N, D-CNP22 (all D-amino acids)]
output: 1

input: Find cGMP Response rel. to 1 uM CNP22, 1 uM (NPR-B (Mus musculus)) for the entry CC[C@H](C)[C@@H]1NC(=O)[C@H](CCCNC(=N)N)NC(=O)[C@H](CC(=O)O)NC(=O)[C@H](CC(C)C)NC(=O)[C@H](CCCCN)NC(=O)[C@H](CC(C)C)NC(=O)CNC(=O)[C@H](Cc2cccc(Cl)c2)NC(=O)[C@@H](NC(=O)CNC(=O)[C@H](CCCCN)NC(=O)[C@H](CO)NC(=O)[C@H](CC(C)C)NC(=O)CN)CSSC[C@@H](C(=O)O)NC(=O)CNC(=O)[C@H](CC(C)C)NC(=O)CNC(=O)[C@H](CO)NC(=O)[C@H](CCSC)NC(=O)[C@H](CO)NC(=O)CNC1=O [Analog G]
output: 93

Attention now turns to another entry.
input: Find cGMP Response rel. to 1 uM CNP22, 1 uM (NPR-B (Mus musculus)) for the entry CC[C@H](C)[C@@H]1NC(=O)[C@H](CCCNC(=N)N)NC(=O)[C@H](CC(=O)O)NC(=O)[C@H](CC(C)C)N(C)C(=O)[C@H](CCCCN)NC(=O)[C@H](CC(C)C)N(C)C(=O)CNC(=O)[C@H](Cc2ccccc2)NC(=O)[C@@H](NC(=O)CNC(=O)[C@H](CCCCN)NC(=O)[C@H](CO)NC(=O)[C@H](CC(C)C)NC(=O)CN)CSSC[C@@H](C(=O)O)NC(=O)CNC(=O)[C@H](CC(C)C)N(C)C(=O)CNC(=O)[C@H](CO)NC(=O)[C@H](CCSC)NC(=O)[C@H](CO)NC(=O)CNC1=O [Analog L]
output: 10

* * *

# reported half-life at 100 uM; entries follow
testedTarget: neutral endopeptidase (NEP) (Homo sapiens, UniProt P08473)
Sequence (P08473 whole entry): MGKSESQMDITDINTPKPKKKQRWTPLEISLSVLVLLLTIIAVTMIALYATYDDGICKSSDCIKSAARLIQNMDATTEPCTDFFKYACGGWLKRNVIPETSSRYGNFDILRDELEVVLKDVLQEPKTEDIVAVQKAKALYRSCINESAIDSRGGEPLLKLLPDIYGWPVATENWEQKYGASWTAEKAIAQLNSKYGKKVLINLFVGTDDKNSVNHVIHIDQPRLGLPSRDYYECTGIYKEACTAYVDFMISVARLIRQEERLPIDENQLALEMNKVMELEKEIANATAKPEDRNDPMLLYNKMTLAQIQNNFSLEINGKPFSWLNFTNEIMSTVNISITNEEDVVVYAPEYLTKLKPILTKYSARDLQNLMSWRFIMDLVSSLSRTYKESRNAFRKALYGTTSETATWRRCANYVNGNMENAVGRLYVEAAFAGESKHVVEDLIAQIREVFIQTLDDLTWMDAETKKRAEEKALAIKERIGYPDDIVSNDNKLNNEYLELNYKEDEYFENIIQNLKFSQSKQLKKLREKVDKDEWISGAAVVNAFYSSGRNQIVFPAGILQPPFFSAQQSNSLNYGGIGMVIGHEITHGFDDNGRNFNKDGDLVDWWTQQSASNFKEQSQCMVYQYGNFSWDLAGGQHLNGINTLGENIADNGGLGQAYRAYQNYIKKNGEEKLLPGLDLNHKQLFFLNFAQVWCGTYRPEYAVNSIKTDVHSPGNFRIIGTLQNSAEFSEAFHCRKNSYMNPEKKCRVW
method: in vitro
particulars: human, pH 7
The reply should contain only the number, in h.

input: I am curious: what half-life at 100 uM value has been reported for CC[C@H](C)[C@@H]1NC(=O)[C@H](CCCNC(=N)N)NC(=O)[C@H](CC(=O)O)NC(=O)[C@H](CC(C)C)NC(=O)[C@H](CCCCN)NC(=O)[C@H](CC(C)C)NC(=O)CNC(=O)[C@H](Cc2ccccc2)NC(=O)[C@@H](NC(=O)CNC(=O)[C@H](CCCCN)NC(=O)[C@H](CO)NC(=O)[C@H](CC(C)C)NC(=O)CNC(=O)CCOCCOCCOCCOCCOCCOCCOCCOCCOCCOCCOCCOC)CSSC[C@@H](C(=O)O)NC(=O)CNC(=O)[C@H](CC(C)C)NC(=O)CNC(=O)[C@H](CO)NC(=O)[C@H](CCSC)NC(=O)[C@H](CO)NC(=O)CNC1=O ?
output: 2.67

Attention now turns to another entry.
input: I am curious: what half-life at 100 uM value has been reported for CC[C@H](C)[C@@H]1NC(=O)[C@H](CCCNC(=N)N)NC(=O)[C@H](CC(=O)O)NC(=O)[C@H](CC(C)C)NC(=O)[C@H](CCCCN)NC(=O)[C@H](CC(C)C)NC(=O)CNC(=O)[C@H](Cc2ccccc2)NC[C@@H](NC(=O)CNC(=O)[C@H](CCCCN)NC(=O)[C@H](CO)NC(=O)[C@H](CC(C)C)NC(=O)CN)CSSC[C@@H](C(=O)O)NC(=O)CNC(=O)[C@H](CC(C)C)NC(=O)CNC(=O)[C@H](CO)NC(=O)[C@H](CCSC)NC(=O)[C@H](CO)NC(=O)CNC1=O ?
output: 0.917
